Reported inhibition at 0.082 µg/mL values for the following molecules.
Biological target: rat hepatic microsomal HMG CoA reductase (Rattus norvegicus)
Construct: rat hepatic microsomal HMG CoA reductase activity in vitro; from tissue; host or cells: rat liver microsomes
Assay: inhibition in rat hepatic microsomal HMG CoA reductase activity in vitro (Table I)
Type: biochemical
Conditions: 0.082 micrograms/ml
Observation type: inhibition at 0.082 µg/mL

>>> readout_value("CCOC(=O)CC(O)CC(O)/C=C/c1c(-c2ccc(F)cc2)c2c3ccccc3ccn2c1C(C)C (stereo not drawn)")
"61%"
>>> readout_value("CC(C)c1c(/C=C/[C@@H](O)C[C@H](O)CC(=O)O)c(-c2ccc(F)cc2)c2c3ccccc3ccn12 (relative stereo)")
"29%"
>>> readout_value("CC(C)c1c(/C=C/[C@@H](O)C[C@@H](O)CC(=O)O)c(-c2ccc(F)cc2)c2c3ccccc3ccn12 (relative stereo)")
"63%"
>>> readout_value("CCc1c(/C=C/C(O)CC(O)CC(=O)O)c(-c2ccc(F)cc2)c2c3ccccc3ccn12 (stereo not drawn)")
"33%"
>>> readout_value("CC(C)c1c(/C=C/C(=O)CC(O)CC(=O)O)c(-c2ccc(F)cc2)c2c3ccccc3ccn12 (stereo not drawn)")
"8%"
>>> readout_value("Cc1c(/C=C/C(O)CC(O)CC(=O)O)c(-c2ccccc2)c2c3ccccc3ccn12 (stereo not drawn)")
"44%"

---

Target: rat hepatic microsomal HMG CoA reductase (Rattus norvegicus, UniProt P51639)
Construct: rat hepatic microsomal HMG CoA reductase activity in vitro; from tissue; host or cells: rat liver microsomes
Sequence (P51639 1-887): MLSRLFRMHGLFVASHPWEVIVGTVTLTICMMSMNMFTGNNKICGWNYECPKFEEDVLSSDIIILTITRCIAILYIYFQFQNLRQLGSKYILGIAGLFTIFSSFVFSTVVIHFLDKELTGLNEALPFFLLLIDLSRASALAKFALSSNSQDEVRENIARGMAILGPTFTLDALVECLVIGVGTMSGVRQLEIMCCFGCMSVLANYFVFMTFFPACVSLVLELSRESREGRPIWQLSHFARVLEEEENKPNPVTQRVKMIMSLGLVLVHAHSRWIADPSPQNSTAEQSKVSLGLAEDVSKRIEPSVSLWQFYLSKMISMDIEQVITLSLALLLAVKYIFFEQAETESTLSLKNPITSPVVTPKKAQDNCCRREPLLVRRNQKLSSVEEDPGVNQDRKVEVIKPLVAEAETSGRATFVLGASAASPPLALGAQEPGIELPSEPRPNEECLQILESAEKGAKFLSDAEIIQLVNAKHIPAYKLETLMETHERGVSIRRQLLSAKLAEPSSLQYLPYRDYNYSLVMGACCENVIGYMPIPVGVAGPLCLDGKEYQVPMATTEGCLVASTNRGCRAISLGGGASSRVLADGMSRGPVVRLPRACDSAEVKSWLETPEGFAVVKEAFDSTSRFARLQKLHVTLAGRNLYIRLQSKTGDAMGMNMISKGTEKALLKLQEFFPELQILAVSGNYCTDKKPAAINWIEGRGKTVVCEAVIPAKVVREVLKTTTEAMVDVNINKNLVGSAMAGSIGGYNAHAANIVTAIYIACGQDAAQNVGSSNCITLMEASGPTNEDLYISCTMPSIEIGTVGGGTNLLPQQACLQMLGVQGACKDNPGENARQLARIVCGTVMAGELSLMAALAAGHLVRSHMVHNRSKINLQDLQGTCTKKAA
Assay: inhibition in rat hepatic microsomal HMG CoA reductase activity in vitro (Table I)
Type: biochemical
Settings: 6.66 micrograms/ml
Observation type: inhibition at 6.66 µg/mL (%)

>>> readout_value("CCOC(=O)CC(O)CC(O)/C=C/c1c(-c2ccccc2)c2c3ccccc3ccn2c1C (stereo not drawn)")
54
>>> readout_value("CC(C)c1c(/C=C/C(O)CC(O)CC(=O)O)c(-c2ccc(F)cc2)n2ccc3ccccc3c12 (stereo not drawn)")
96
>>> readout_value("CCc1c(/C=C/C(O)CC(O)CC(=O)O)c(-c2ccc(F)cc2)c2c3ccccc3ccn12 (stereo not drawn)")
95
>>> readout_value("Cc1c(/C=C/C(O)CC(O)CC(=O)O)c(-c2ccccc2)c2c3ccccc3ccn12 (stereo not drawn)")
68
>>> readout_value("CC(C)c1c(/C=C/C(=O)CC(O)CC(=O)O)c(-c2ccc(F)cc2)c2c3ccccc3ccn12 (stereo not drawn)")
89
>>> readout_value("CC(C)c1c(/C=C/C(O)CC(O)CC(=O)O)c(-c2ccc(F)cc2)c2c3ccccc3ccn12 (stereo not drawn)")
97
